Tested on: BMX;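 also: KINOMEscan scanMAX binding as percent activity remaining versus control; lower means stronger binding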
Settings: Compound Concentration (nM):1000
quantity_measured: Percent Control (%)
One number for each entry, in %.

// solved cases for Percent Control follow
molecule | Percent Control (%)
NS(=O)(=O)c1ccc(N/N=C2\C(=O)Nc3ccc(Cl)cc32)cc1 [GW280670X] | 100
CCS(=O)(=O)c1ccc(OC)c(Nc2ncc(-c3cccc(F)c3)o2)c1 [GW621970X] | 100

// batch mode: one Percent Control value per listed entry
1. Cl.O=C(Nc1ccc(Oc2ccc3[nH]c(NC(=O)c4ccccc4)nc3c2)cc1)Nc1cc(C(F)(F)F)ccc1F [GW709042A]
2. C[C@@H](Oc1cc(-n2cnc3ccc(OC4CCN(C)CC4)cc32)sc1C(N)=O)c1ccccc1Cl [GSK579289A]
3. Cl.O=C(O[C@H]1CN[C@H](C#Cc2cc3ncnc(Nc4ccc5c(cnn5Cc5ccccc5)c4)c3s2)C1)N1CCOCC1 [GSK200398A]
4. CC1=C(C(=O)Nc2ccc3[nH]ncc3c2)C(c2ccc(Cl)c(Cl)c2)CC(=O)N1 (centres unmarked) [GSK299115A]
5. COc1cc(C)c(N(C)C(=O)CN(C)C)cc1Nc1nc(Nc2cccc(F)c2C(N)=O)c2cc[nH]c2n1

1: 94; 2: 98; 3: 98; 4: 75; 5: 92

Check the records and state Percent Control for CCc1ccc(Oc2nccc(-c3c(-c4ccc(F)cc4)ncn3C3CCNCC3)n2)cc1 100
